Data origin, for the record: ChEMBL document CHEMBL1201862

- Tested on: UO-31
- assay.procedure: NCI tumour cell line growth inhibition, 48 h
The source made the active and inactive calls. Rule as the data show it: active = GI50 up to about 1.1 µM and inactive = higher.
Please respond with reported GI50 for every item in the list.

Past entries and their recorded results:
[[record]]
compound = "CC1=C2C3=C(C)C(=O)C(C)(C)CC[C@@]3(C)[C@]2(C)CCC(C)(C)C1=O"
result = "> 100 µM (inactive)"

[[record]]
compound = "Cc1cc(C)nc(NCCC(O)(P(=O)(O)O)P(=O)(O)O)n1"
result = "> 100 µM (inactive)"

[[record]]
compound = "CCOC(=O)c1c(N2CCCC2)[nH]c(=O)c(C(c2ccc(OC)cc2)c2c(O)c(C(=O)OCC)c(N3CCCC3)[nH]c2=O)c1O"
result = "> 100 µM (inactive)"

[[record]]
compound = "CCCCCCCCCCCCCCCCP(=O)(OC)OC"
result = "11.7 µM (inactive)"

[[record]]
compound = "c1cncc(CC2(c3cc4ccccc4[nH]3)OCCO2)c1"
result = "40.6 µM (inactive)"


Below are some compounds; for each one, tell me its GI50.
1. COc1ccccc1/C=C/C1=NN(c2cccc(S(=O)(=O)O)c2)C2(C1)C(Cl)C(=O)N2c1nc2ccccc2s1 (centres undefined)
2. COC(OC)[C@@H](C)[C@H](O)[C@](C)(O)C1OC(C)(C)OC(C(C)C=C(C)C)C1C (some centres undefined)
3. CNC1c2ccccc2C(=O)c2cc3c(cc21)OCCOCCOCCOCCO3 (centres undefined)
4. CCOC(=O)/C1=C(\C)N(Cc2ccccc2)C(=O)c2ccccc2C(=O)c2c(O)ccc(O)c21

["16.9 µM (inactive)", "80.7 µM (inactive)", "> 100 µM (inactive)", "> 100 µM (inactive)"]

====

- System: HOP-62
- assay.procedure: NCI tumour cell line growth inhibition, 48 h
The source made the active and inactive calls. Rule as the data show it: active = GI50 up to about 1.1 µM and inactive = higher.
Please respond with reported GI50 for every item in the list.

Below are some compounds; for each one, tell me its GI50.
1. CCOc1ccc(N2C(=O)C3c4[nH]c5ccccc5c4C4CCC(C(C)(C)C)CC4C3C2=O)cc1 (stereo unspecified)
2. N#CCc1n[nH]c2nc(SCc3ccccc3)nc(N3CCCCC3)c12
3. CCOC(=O)/C1=C(\C)N(Cc2ccccc2)C(=O)c2ccccc2C(=O)c2c(O)ccc(O)c21
4. C=C(Br)COc1ccc2c(C)cc(=O)oc2c1

> 100 µM (inactive)
20.4 µM (inactive)
> 100 µM (inactive)
69.8 µM (inactive)

Below are some compounds; for each one, tell me its GI50.
1. COc1ccc2c(=O)c(-c3cc(OC)c(OC)cc3OC)coc2c1
2. CN(N)/N=N/c1[nH]cnc1C(N)=O
3. N=C(N)N/N=C/c1c(-c2cccc([N+](=O)[O-])c2)nc2n1CCS2
4. CCCCCCn1c(SCC)c2ccccc2c1-c1nc(F)nc(F)n1

1. 3.72 µM (inactive)
2. 48.9 µM (inactive)
3. 22.4 µM (inactive)
4. > 100 µM (inactive)

Below are some compounds; for each one, tell me its GI50.
1. O=C(CSC(=S)N1CCOCC1)Nc1nc2c(s1)CCCC2
2. COC(=O)C(Cc1c[nH]c2ccccc12)NP(=O)(O)OCC1OC(n2ccc(N)nc2=O)C(O)C1O (stereo unspecified)
3. CC(=O)OC(OC(C)=O)n1cc(C=O)c2ccccc21

1. > 100 µM (inactive)
2. > 100 µM (inactive)
3. > 100 µM (inactive)

====

Please respond with reported GI50 for every item in the list.
- Tested on: NCI-H23
- assay.procedure: NCI tumour cell line growth inhibition, 48 h
Calls of active or inactive are those of the source. No stated cut-off is given here; in the data, active = GI50 up to about 1.1 µM and inactive = higher.

Below are some compounds; for each one, tell me its GI50.
1. CCCCCCn1c(SCC)c2ccccc2c1-c1nc(F)nc(F)n1
2. COC(=O)NNC(c1ccc(Cl)cc1)c1ccc(Cl)cc1
3. COc1ccc(CCCCl)c(C2=NCCc3cc(OC)c(OC)cc32)c1

1. > 100 µM (inactive)
2. 16.3 µM (inactive)
3. 31.5 µM (inactive)

Below are some compounds; for each one, tell me its GI50.
1. Cc1ccc(NC(=O)C23CC4CC(CC(C4)C2)C3)c(C(=O)NNC(=O)c2ccc(Cl)cc2)c1
2. O=c1[nH]c(=O)n(C2CC(O)C(CO)O2)cc1C(OCC(F)(F)F)OCC(F)(F)F (stereo not given)

1. 12.9 µM (inactive)
2. > 100 µM (inactive)

====

- System: DMS-273
- assay.procedure: NCI tumour cell line growth inhibition, 48 h
Active and inactive are the calls of the source. Cut-off read from the data, not from the text of the source: active = GI50 up to about 1.1 µM and inactive = higher.
Thanks in advance; please answer with one of these: active, inactive

[[record]]
molecule = "C[N+](C)([O-])CCOc1cc2c(c3ccccc13)-c1ccccc1C2=O"
tested_on = "DMS-273"
group_label = "inactive"

[[record]]
molecule = "COc1ccccc1-c1cc(=O)c2ccccc2[nH]1"
tested_on = "DMS-273"
group_label = "inactive"

[[record]]
molecule = "COc1ccc(NC(=O)c2oc3cc(O)ccc3c(=O)c2C)c([N+](=O)[O-])c1"
tested_on = "DMS-273"
group_label = "inactive"

[[record]]
molecule = "CC(=O)OCc1c(O)nc2c(c1O)-c1ccccc1CC2"
tested_on = "DMS-273"
group_label = "inactive"


# outcome recorded in this test, key = O=C1C[C@@H]2C(COC(=O)c3ccccc3)N(OCc3ccccc3)C[C@@H]2O1 (stereo partly drawn)
inactive

# outcome recorded in this test, key = O=c1ccc2ccc(O)c3c4c(O)ccc5ccc(=O)c(c1c23)c54
inactive

# outcome recorded in this test, key = NCCSCC(N)C(=O)O (stereo not drawn)
inactive

# outcome recorded in this test, key = O=[N+]([O-])c1cccc(C2=NN(c3ccccc3)C3c4ccccc4OCC23)c1 (stereo not drawn)
inactive

====

- Tested on: HCT-15
Threshold check on GI50: strictly below 20 µM is 1; on or above 20 µM is 0.

[[record]]
compound = "N#Cc1cccc2c1Sc1ccccc1N2"
group_label = 0

[[record]]
compound = "N#Cc1c(=O)c2cccnc2n2c1[nH]c1ccccc12"
group_label = 0

[[record]]
compound = "C1=NN(Cc2ccccc2)C(N(Cc2ccccc2)Cc2ccccc2)N1 (stereo not drawn)"
group_label = 1

[[record]]
compound = "Cn1c(=O)sc2cc(C(=S)N3CCCCC3)ccc21"
group_label = 0

[[record]]
compound = "COc1cccc(/N=N/C(=NNC(=O)c2ccc(C)cc2)c2ccc(N(C)C)cc2)c1"
group_label = 0

[[record]]
compound = "O=C1c2ccccc2N2OC3(N4CCCC4)CCCCC3C12c1ccccc1 (stereo not drawn)"
group_label = 0

[[record]]
compound = "O=C(/C=C/c1cccc(Br)c1)c1cccs1"
group_label = 1

[[record]]
compound = "C=C1C(=O)OC2(C)C3CCC(C3)C12 (stereo not drawn)"
group_label = 0

[[record]]
compound = "O=[N+]([O-])c1ccc(-c2ccc(/C=N/n3c(S)nnc3-c3ccc(Cl)cc3)o2)cc1"
group_label = 0

[[record]]
compound = "C=C1C(=O)O[C@H]2[C@@H](O)[C@H](C)CCC[C@]3(C)O[C@H]3CC[C@@]3(C)O[C@@H]3C[C@@H]12"
group_label = 1


Item CSc1ccc2c(cc1=O)[C@@H](NC(=O)c1ccc(F)cc1)CCc1cc(O)c(O)c(O)c1-2 : GI50 beneath 20 µM, strictly?
0

Item CCOC(=O)Cc1nc2c(N)ncnc2n1C1OC(COC(C)=O)C(OC(C)=O)C1OC(C)=O (stereo not drawn) : GI50 beneath 20 µM, strictly?
0

Item C[C@H](c1ccccc1)n1c(N)c(-c2nc3ccccc3s2)c2ccc([N+](=O)[O-])cc2c1=O : GI50 beneath 20 µM, strictly?
1

Item O=S(=O)(O)c1ccc(/N=N/c2ccccc2)cc1 : GI50 beneath 20 µM, strictly?
0

Item O=C(CC(=O)c1ccncc1)c1ccccc1 : GI50 beneath 20 µM, strictly?
0

Item COc1ccc2nc3cc(Cl)ccc3c(Sc3ccc(N)cc3)c2c1 : GI50 beneath 20 µM, strictly?
1

Item CC(C)(C)[Si](C)(C)OCC1OC(n2ccc(N)nc2=O)C(O[Si](C)(C)C(C)(C)C)C1O[Si](C)(C)C(C)(C)C (stereo not drawn) : GI50 beneath 20 µM, strictly?
1

Item Cc1ccc2[nH]c3c(c(=O)n(C)c(=O)n3C)c2c1 : GI50 beneath 20 µM, strictly?
0

Item Cc1ccc2c(c1)[nH]c(=S)n2C=C(C(N)=O)C(N)=O : GI50 beneath 20 µM, strictly?
0

Item CC[C@H](C)[C@H](NC(=O)N(CCC#N)CCN(CCN(C(=O)N[C@@H](Cc1ccccc1)C(=O)OC)c1ccccc1)C(=O)N[C@H](C(=O)OC)C(C)C)C(=O)OC : GI50 beneath 20 µM, strictly?
0

Item O=c1ccc2ccc(O)c3c4c(O)ccc5ccc(=O)c(c1c23)c54 : GI50 beneath 20 µM, strictly?
1

Item COc1ccc(N2C(=O)C3c4[nH]c5ccccc5c4C4C(C)CCCC4C3C2=O)cc1 (stereo not drawn) : GI50 beneath 20 µM, strictly?
0

Item CN(CCCN(C)CCc1ccc(Cl)c(Cl)c1)CCCN1CCCC1 : GI50 beneath 20 µM, strictly?
1

Item Cc1cc(Br)ccc1NC1=CC(=O)C(=O)c2ccccc21 : GI50 beneath 20 µM, strictly?
0

Item CCCCCCCCC[C@@H]1C[C@@H]2CCC3C(C(=O)OCCCCNC(=O)OCc4ccccc4)=C(C)N=C(N1)N32 (stereo partly drawn) : GI50 beneath 20 µM, strictly?
1
